src = patent US20210388087A1

Target: T1, Human CD137 ECD (human)
T1 construct: entry includes C-terminal His-tag and biotin acceptor peptide; also called human CD137 extracellular domain; 4-1BB
T1 sequence (chain, as listed by the source limits assumed): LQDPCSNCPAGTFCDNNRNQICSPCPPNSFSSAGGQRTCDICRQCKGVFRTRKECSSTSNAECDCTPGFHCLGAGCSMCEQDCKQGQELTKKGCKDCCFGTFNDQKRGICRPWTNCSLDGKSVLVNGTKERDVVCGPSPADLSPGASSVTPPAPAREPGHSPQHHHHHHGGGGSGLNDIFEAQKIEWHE
Test: Biacore SPR, vs parent H183/L072
For each record, write down the corresponding fold change of affinity.
Numbers only, in fold.

Here's what some known entries look like.
>>> observed_value("H183/L072 VL V27cY (antibody, name in Kabat numbering, V domains shown, Dual-Ig) VH: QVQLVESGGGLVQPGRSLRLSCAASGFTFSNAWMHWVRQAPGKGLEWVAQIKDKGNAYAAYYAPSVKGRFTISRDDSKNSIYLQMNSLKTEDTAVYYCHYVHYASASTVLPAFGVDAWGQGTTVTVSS VL: DIVMTQSPLSLPVTPGEPASISCQASQELYHMNRNTYLHWYQQKPGQAPRLLIYKVSNRFPGVPDRFSGSGSGTDFTLKISRVEAEDVGVYYCAQGTSVPFTFGQGTKLEIK")
0.7
>>> observed_value("H183/L072 VL E27aL (antibody, name in Kabat numbering, V domains shown, Dual-Ig) VH: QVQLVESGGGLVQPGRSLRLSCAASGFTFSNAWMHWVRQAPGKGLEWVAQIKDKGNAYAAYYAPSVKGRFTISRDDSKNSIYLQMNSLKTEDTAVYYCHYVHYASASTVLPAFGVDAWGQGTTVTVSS VL: DIVMTQSPLSLPVTPGEPASISCQASQLLVHMNRNTYLHWYQQKPGQAPRLLIYKVSNRFPGVPDRFSGSGSGTDFTLKISRVEAEDVGVYYCAQGTSVPFTFGQGTKLEIK")
0.9

# fold change of affinity (binder: H183/L072 VL F96L (antibody, name in Kabat numbering, V domains shown, Dual-Ig) VH: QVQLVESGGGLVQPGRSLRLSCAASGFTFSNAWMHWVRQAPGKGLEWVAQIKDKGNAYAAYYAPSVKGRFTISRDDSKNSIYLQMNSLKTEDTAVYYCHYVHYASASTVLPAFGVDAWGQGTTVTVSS VL: DIVMTQSPLSLPVTPGEPASISCQASQELVHMNRNTYLHWYQQKPGQAPRLLIYKVSNRFPGVPDRFSGSGSGTDFTLKISRVEAEDVGVYYCAQGTSVPLTFGQGTKLEIK ) is 0
